measurementNotes: qHTS for Inhibitors of human tyrosyl-DNA phosphodiesterase 1 (TDP1): qHTS in cells in presence of CPT; also: nearly all actives have a fitted effect of over 55% in size
assaySetup: chicken DT40 Tdp1-/-;hTDP1 cells + 20 nM CPT, ATP luminescence, 48 h; series mostly up to 46.2 µM
The whole screen tested about 420,000 compounds, of which about 50,000 (12%) were called active. Roughly 26% stayed inconclusive and do not appear here. Calls follow the shape of the dose curve; as a rule, active = well fitted inhibition curve with a large enough effect; inconclusive = small, poorly fitted or top-dose-only effect; inactive = flat fitted curve, though single readings scatter. The sample holds actives, similar compounds and a random draw of the others, so the mix is not that of the screen.
Could you please pick one outcome from this set? active, inactive

See these solved cases before continuing.
INSERT INTO measurements (compound, label) VALUES
  ('C=CCc1ccccc1OCC(O)CN1CCN(CCO)CC1 (stereo not given)', 'inactive'),
  ('O=C(O)CCCN1C(=O)c2ccccc2Sc2ncccc21', 'inactive'),
  ('Cc1ccc(S(=O)(=O)c2cn(Cc3ccccc3)c3cc(N4CCCC4)c(F)cc3c2=O)c(C)c1', 'active'),
  ('Cc1[nH]n(-c2ccc([N+](=O)[O-])cc2)c(=O)c1C=NCCN1CCN(C(=O)c2ccccc2F)CC1', 'active'),
  ('COc1cccc(CCNC(=O)c2cccc(NC(=O)C3=C(C)OCCS3)c2)c1', 'active'),
  ('Cc1ccc(Cl)c(OCC(=O)N2CCc3ccccc3C2)c1', 'inactive');

Short answer needed: outcome of this test for "COc1cccc(C(=O)NCCSc2ccc(Br)cc2)c1" ?
inactive

Can you check "COc1cc([N+](=O)[O-])cc([N+](=O)[O-])c1NC(=O)N1CCOCC1" next?
inactive

Also check "CCn1cc(C(=O)NCCO)c(=O)c2cc(F)c(N3CCN(C)CC3)cc21"
inactive

# iterate: "C=CCNC(=S)N1CCN(CCN=Cc2c(C)[nH]n(-c3ccc([N+](=O)[O-])cc3)c2=O)CC1"
inactive
